Attribution: paper PMC11249646

target: CIB1 and αIIb interaction (CIB1-GST : F-αIIb peptide) (Homo sapiens); construct: made in house; host or cells: BL-21 plus RIL cells (E. coli); test: FP assay, 1536-well qHTS format (primary and confirmatory screen); type: binding; details: qHTS primary screen hits, Table S2; negative = inhibition
Sequence (Q99828 whole entry): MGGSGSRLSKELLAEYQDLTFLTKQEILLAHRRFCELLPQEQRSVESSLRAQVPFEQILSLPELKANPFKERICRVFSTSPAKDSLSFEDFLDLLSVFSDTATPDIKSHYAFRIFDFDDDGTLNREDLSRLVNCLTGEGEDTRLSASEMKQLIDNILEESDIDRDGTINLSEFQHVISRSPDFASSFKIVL
Label fulfilled when Efficacy (%) is at or above -40%; anything below gets not fulfilled.

Some entries whose results are on file:
INSERT INTO results (compound, classassignment) VALUES
  ('NS(=O)(=O)c1ccc(Cc2c(-c3ccc(F)c(-c4cccs4)c3)nn(-c3nc(C(=O)O)cs3)c2CC2CC2)cc1F.O=C(O)C(F)(F)F [NCGC00390071-01]', 'fulfilled'),
  ('O=C(O)C1=CC(=C(c2ccc(O)c(C(=O)O)c2)c2ccc(O)c(C(=O)O)c2)C=CC1=O [NCGC00015040-05]', 'fulfilled'),
  ('CC[C@]1(O)CC[C@H]2[C@@H]3CCC4=CCCC[C@@H]4[C@H]3CC[C@@]21C [NCGC00167514-02]', 'not fulfilled');

[Q] Evaluate CN(C)c1ccc(NC(=S)N/N=C2\C(=O)Nc3ccccc32)cc1.O=C(O)C(F)(F)F [NCGC00229526-01] : Efficacy (%) at minimum -40%?
[A] fulfilled

[Q] One more compound: O=Cc1ccc(O)c(O)c1O [NCGC00262933-01]
[A] not fulfilled
